These entries and their values trace back to patent US20190375708A1.

# METHOD_SUMMARY: In vitro cytotoxicity assay (MTT cell viability) in HepG2 cells
# Type: cell-based, human
# CONDITIONS: human
PROPERTY: CC50 at 7 days

                                   compound  value_observed
0  Cc1cnc(C(C)(C)NC(=O)C(=O)c2cc(C(=O)Nc3ccc(F)c(C)c3)c3n2CCCC3)s1         > 30 µM
1  Cc1csc(NC(=O)C(=O)c2c(C)c(C(=O)Nc3ccc(F)c(Cl)c3)c(C)n2C)n1         > 30 µM
2  Cc1nnc(NC(=O)C(=O)c2c(C)c(C(=O)Nc3ccc(F)c(C)c3)c(C)n2C)o1         > 30 µM
3  Cc1cc(NC(=O)c2c(C)c(C(=O)C(=O)NC3CCc4nc(N)sc4C3)n(C)c2C)cnc1F (stereo in doubt)  0.5 to 4.99 µM
4  Cc1csc(NC(=O)C(=O)c2c(C)c(C(=O)Nc3cnc(F)c(C)c3)c(C)n2C)n1         > 30 µM

Q: Fill in CC50 at 7 days for record Cc1cc(NC(=O)c2c(C)c(C(=O)C(=O)NC(C)(C)C)n(C)c2C)cnc1F
Ans: > 30 µM

Q: Give CC50 at 7 days for CC(C)(O)CNC(=O)C(=O)c1c(Cl)c(C(=O)Nc2ccc(F)c(F)c2)c2n1CCCC2
Ans: 5 to 30 µM

Q: Return CC50 at 7 days (reported value) for this compound: Cc1cc(NC(=O)c2c(C)c(C(=O)C(=O)NC(C)(C)C(F)(F)F)n(CCF)c2C)cnc1F
Ans: > 30 µM

Q: Identify measured CC50 at 7 days associated with Nc1ncc(CNC(=O)C(=O)c2c(Cl)c(C(=O)Nc3ccc(F)c(F)c3)c3n2CCC3)s1
Ans: > 30 µM

Q: Could you please provide reported CC50 at 7 days for Cc1cc(NC(=O)c2c(C)c(C(=O)C(=O)N[C@H](C(N)=O)C(C)C)n(C)c2C)ccc1F ? Thanks!
Ans: > 30 µM

Q: Could you please provide reported CC50 at 7 days for Cc1cc(NC(=O)c2c(C)c(C(=O)C(=O)N3CCc4nc(N)sc4C3)n(C)c2C)ccc1F ? Thanks!
Ans: > 30 µM

Q: Tell me CC50 at 7 days reported for Cc1cc(NC(=O)c2c(C)c(C(=O)C(=O)NC3CCSCC3)n(C)c2C)ccc1F
Ans: 5 to 30 µM

Q: Give the measured CC50 at 7 days for Cc1c(C(=O)Nc2ccc(F)nc2)c(C)n(C)c1C(=O)C(=O)N[C@H]1CC[C@](O)(C(F)(F)F)CC1
Ans: > 30 µM
